B1: Pistol ribozyme (parent)
chain: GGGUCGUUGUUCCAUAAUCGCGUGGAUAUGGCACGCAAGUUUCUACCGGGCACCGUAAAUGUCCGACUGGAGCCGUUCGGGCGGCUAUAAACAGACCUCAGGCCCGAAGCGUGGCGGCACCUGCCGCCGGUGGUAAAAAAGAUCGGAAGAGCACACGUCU

- Variants of: B1
- protocol description: aptazyme ON/OFF ratio, guanine; higher = stronger switching; co-transcriptional cleavage with and without guanine
Can you tell me aptazyme ON/OFF ratio for the items I'm about to list?
Answer using only a numeral; do not append any unit.

Dear colleague, I am looking for the recorded aptazyme ON/OFF ratio of the following variant: U7A U8G G9A U10C U11G C12U
1.26

Record request: aptazyme ON/OFF ratio value, item U8G G9A U11G C12U C13A
1.2

Any idea what aptazyme ON/OFF ratio was measured for U7C G9U U10A U11A C12G ?
1.29

Quick check: aptazyme ON/OFF ratio of U7C U8A U10C U11C C12G C13A ?
1.2

Which measured aptazyme ON/OFF ratio value corresponds to U7C G9C U10C U11G C12U ?
1.01

I'd like to know its aptazyme ON/OFF ratio. The variant in question is U7C U8A G9U U11G C12G C13G
1.16

Name the recorded aptazyme ON/OFF ratio for U7G U10A U11G C12U C13U .
1.28

# get_value(readout='aptazyme ON/OFF ratio', item= U7A U10G U11C C12G )
1.64

Requested field: aptazyme ON/OFF ratio. Item: U7A U8G G9A U10A C13G
1.18

Given the entry U7G U8A U11C C12U C13U , report its measured aptazyme ON/OFF ratio.
1.47

Name the recorded aptazyme ON/OFF ratio for U7C U8A U11G .
1.18

Can you share its aptazyme ON/OFF ratio? I mean this variant: U7G G9A U10C U11C C13U
1.02

Endpoint output: aptazyme ON/OFF ratio of U8A G9U U10A C12G C13A . Value?
1.34

So what's the measured aptazyme ON/OFF ratio for this one? U7A U8G U11C C12G
1.05

Suppose we examine the variant U7G U8C U10A U11G C12U C13G ; what aptazyme ON/OFF ratio value has been reported?
1.16

Sample U7C U8A U10G U11G C12U C13G — what was its aptazyme ON/OFF ratio?
1.22

Data request, read-out aptazyme ON/OFF ratio, for U7G G9U U10G U11A C12G C13U
1.18

Can you look up the measured aptazyme ON/OFF ratio of U7A U11C C12U C13A for me?
1.27

Which aptazyme ON/OFF ratio reading was recorded for the variant U7A U8C C12A C13A ?
1.28

So what does the record say about aptazyme ON/OFF ratio for U7C U8G G9U U10A C13U ?
1.1

For the variant U8A G9A U10G U11A C12A C13G , what aptazyme ON/OFF ratio is on record?
1.24

Given U7A G9A U10C U11G C12A C13U , state its recorded aptazyme ON/OFF ratio.
1.1

Given the variant U8C G9C U10A U11A C12U C13G , what is its reported aptazyme ON/OFF ratio?
1.1

Which aptazyme ON/OFF ratio is listed for U7C U8A U10G U11C C12G C13U ?
1.38

Item under review: U7C U8C G9A U10G U11G C13A . Reported aptazyme ON/OFF ratio?
1.18

Param item = U7C U8C G9A U10A U11C C12U C13G ; retrieve measured aptazyme ON/OFF ratio.
1.2

Entry U7G U10C U11A C12G has what aptazyme ON/OFF ratio?
1.18

So what's the measured aptazyme ON/OFF ratio for this one? U7C U8C G9U U10G U11G C12U C13U
1.08

Dear colleague, I am looking for the recorded aptazyme ON/OFF ratio of the following variant: U7A U8G G9U U10C U11C C13G
1.12

Give the measured aptazyme ON/OFF ratio of G9A U10C U11C C12A C13U .
1.3

For U7G U8C U11G C12U C13A , what is its reported aptazyme ON/OFF ratio?
1.14

Could you share which aptazyme ON/OFF ratio value was measured for U7A G9A U10G ?
1.53

Need aptazyme ON/OFF ratio of U7A G9C U11A C12U C13A , thanks.
1.1
